Population Normal (%) listing for selected molecules.
- Test system: U2OS
- assayRemarks: Multiplex assay against U2OS
- Format: toxicity, cell-based
- settings: human, 24 h, 1 µM, compound concentration 1 uM, replicate 1
Give your result in % as a bare value.

1) Cn1nc(C(F)(F)F)cc1-c1cnc(N2CCc3cc(S(=O)(=O)Nc4c(F)cc(Cl)cc4F)cc(N4CCCC4=O)c32)nc1    97
2) Cc1cc(C)c(S(=O)(=O)N(Cc2ccc(-c3cccc(S(C)(=O)=O)c3)cc2)Cc2ccc(C(F)(F)F)o2)c(C)c1    96
3) O=C(Nc1ccc(-n2nc(-c3cccnc3)cc2C(F)(F)F)cn1)c1ccc(-c2ccccc2)c(F)c1    94
4) CCc1cccc(CC)c1NC(=O)c1nn(C)c2c1CCc1cnc(Nc3ccc(C(=O)NC4CCN(C)CC4)cc3OC(F)(F)F)nc1-2    92
5) CN1C2CCC1CC(OC(c1ccc(F)cc1)c1ccc(F)cc1)C2.Cl (stereo unspecified)    96
6) CN1CCC(=C2c3ccccc3CC(=O)c3sccc32)CC1.O=C(O)/C=C/C(=O)O [KETOTIFEN FUMARATE]    94

Here is the next item to consider.
Task: Look up Population Normal (%) for this molecule: CCOC(=O)c1c(C)[nH]c2ccc3c(c12)CN1CCc2cc(OC)ccc2C1O3 (stereo unspecified)
Result: 94

====

- System: HEK-293T
- assayRemarks: Multiplex assay against HEK293T
- Assay type: toxicity, cell-based
- settings: human, 48 h, 10 µM, compound concentration 10 uM, replicate 2
Class membership depends on Population Fragmented Nuclei (%) alone; the intervals are 0 (below 7%), 1 (7% to below 10%), 2 (10% or more)

Worked set:
1. Cl.Oc1ccc2c3c1O[C@H]1c4[nH]c5c(c4C[C@@]4(O)[C@@H](C2)N(CC2CC2)CC[C@]314)C[C@@]1(O)[C@H]2Cc3ccc(O)c4c3[C@@]1(CCN2CC1CC1)[C@H]5O4    0
2. O=C(Nc1ccc(-n2nc(-c3cccnc3)cc2C(F)(F)F)cn1)c1ccc(-c2ccccc2)c(F)c1 [BI 2049]    0
3. CCOC(=O)c1c(C)[nH]c2ccc3c(c12)CN1CCc2cc(OC)ccc2C1O3 (centres undefined)    0
4. CN1C2CCC1CC(OC(c1ccc(F)cc1)c1ccc(F)cc1)C2.Cl (centres undefined)    1
5. CCCn1c(=O)c2[nH]c(-c3cnn(Cc4cccc(C(F)(F)F)c4)c3)nc2n(CC)c1=O [GS 6201]    0
6. CCn1c(=O)c(-c2ccc(-c3cncs3)cc2Cl)cc2cnc(Nc3ccc(N4CCN(C)CC4)cc3)nc21    1
7. CN(C)C(=O)C(CCN1CCC(O)(c2ccc(Cl)cc2)CC1)(c1ccccc1)c1ccccc1.Cl [LOPERAMIDE HYDROCHLORIDE]    1
8. Cc1cc(C)c(S(=O)(=O)N(Cc2ccc(-c3cccc(S(C)(=O)=O)c3)cc2)Cc2ccc(C(F)(F)F)o2)c(C)c1    1

Task: Categorize the following entry: `Cl.O=c1c2cccn2c2ccccc2n1CCCN1CCC(c2ccc(Cl)cc2)CC1`
Result: 2

Task: Tag the class for COCC(=O)NC/C=C/c1ccc2ncnc(Nc3ccc(Oc4ccc(C)nc4)c(C)c3)c2c1 [CP-724714]
Result: 1

Task: Bin this entry: `CCc1cccc(CC)c1NC(=O)c1nn(C)c2c1CCc1cnc(Nc3ccc(C(=O)NC4CCN(C)CC4)cc3OC(F)(F)F)nc1-2`
Result: 1

Task: Which category fits this record: C=C1/C(=C\C=C2/CCC[C@]3(C)[C@@H]([C@H](C)/C=C/[C@H](C)C(C)C)CC[C@@H]23)C[C@@H](O)C[C@@H]1O [DOXERCALCIFEROL]
Result: 1

Task: Textbook exercise: identify the category of the compound given here, `CCCS(=O)(=O)c1nc(NC2CC2)cc(-c2ccc3c(ccn3C3CC(C)(C)NC(C)(C)C3)c2)n1` , according to its measured value.
Result: 2

====

In this section we review reported Growth Rate values for a set of compounds.
- System: U2OS
- assayRemarks: Incucyte cell viability with U2OS; further: filed as whole numbers so only -1 and 0 and 1 occur
- Type: toxicity, cell-based
- settings: human, 18 h, 10 µM, compound concentration 10 uM, replicate number 1, timepoint 18 hours
Answer field: number only, no words.

1. C=CCn1c(=O)c2cnc(Nc3ccc(N4CCN(C)CC4)cc3)nc2n1-c1cccc(C(C)(C)O)n1    0
2. C=CC(=O)N1CCC([C@@H]2CCNc3c(C(N)=O)c(-c4ccc(Oc5ccccc5)cc4)nn32)CC1    0

Task: Give the reported Growth Rate for CN(C)[C@H]1CCN(c2cc(-c3ccccc3)nc3ccnn23)C1 [(S)-ZINC-3573] (system: U2OS).
Result: 0

Task: Record lookup: for U2OS, what Growth Rate belongs to `CCCn1c(=O)c2[nH]c(-c3cnn(Cc4cccc(C(F)(F)F)c4)c3)nc2n(CC)c1=O` ?
Result: 1

Task: Requested read-out Growth Rate, target or system U2OS, entry `N#Cc1c[nH]c2c(C(=O)N3CCN(CCc4ccc(F)cc4)CC3)cccc12`
Result: 0

Task: API: value(readout= Growth Rate, system= U2OS, query= `CNC(=O)c1ccc(Nc2nc(OC3CCCC3)c3c(-c4ccc5nc(C)oc5c4)c[nH]c3n2)c(OC)c1` )
Result: 0

Task: Provide value of Growth Rate for this record tested with U2OS: CCOC(=O)c1c(C)[nH]c2ccc3c(c12)CN1CCc2cc(OC)ccc2C1O3 (stereo not drawn)
Result: 0

Task: API: value(readout=Growth Rate, system=U2OS) for record CN1CCC(=C2c3ccccc3CC(=O)c3sccc32)CC1.O=C(O)/C=C/C(=O)O [KETOTIFEN FUMARATE]
Result: 1

====

Each entry below carries its reported Population Mitotic Cells (%).
- System: Fibroblast
- assayRemarks: Multiplex assay against human fibroblast
- Format: toxicity, cell-based
- settings: 48 h, 1 µM, compound concentration 1 uM, replicate 1

Below: 6 compounds and their reported Population Mitotic Cells (%).
1) CCOc1cc2ncc(C#N)c(Nc3ccc(OCc4ccccn4)c(Cl)c3)c2cc1NC(=O)/C=C/CN(C)C [NERATINIB]    38%
2) CCn1c(=O)c(-c2ccc(-c3cncs3)cc2Cl)cc2cnc(Nc3ccc(N4CCN(C)CC4)cc3)nc21    47%
3) S=C(NCCCc1c[nH]cn1)NCCCN(Cc1ccc(Cl)c(Cl)c1)c1ccc(Br)cn1    42%
4) C=C1/C(=C\C=C2/CCC[C@]3(C)[C@@H]([C@H](C)/C=C/[C@H](C)C(C)C)CC[C@@H]23)C[C@@H](O)C[C@@H]1O [DOXERCALCIFEROL]    33%
5) CCc1cccc(CC)c1NC(=O)c1nn(C)c2c1CCc1cnc(Nc3ccc(C(=O)NC4CCN(C)CC4)cc3OC(F)(F)F)nc1-2    32%
6) O=C(Cc1ccc(-c2ccc(OCCN3CCOCC3)cc2)cn1)NCc1ccccc1 [TIRBANIBULIN]    50%

Task: Endpoint output: Population Mitotic Cells (%) of O=C1NC(=O)C(c2cnc3ccccn23)=C1c1cn2c3c(cc(F)cc13)CN(C(=O)N1CCCCC1)CC2 [LY-2090314] . Value?
Result: 20%

Task: Need Population Mitotic Cells (%), item CN1C2CCC1CC(OC(c1ccc(F)cc1)c1ccc(F)cc1)C2.Cl (stereo not given)
Result: 71%

Task: Which Population Mitotic Cells (%) value is on record for `Cc1cc(C)c(S(=O)(=O)N(Cc2ccc(-c3cccc(S(C)(=O)=O)c3)cc2)Cc2ccc(C(F)(F)F)o2)c(C)c1` ?
Result: 27%

Task: Given the compound `CCOc1cc(C(=O)N2CCC(N3CCN(C)CC3)CC2)ccc1Nc1ncc2c(n1)N(C1CCCC1)c1ccccc1C(=O)N2C` , what is its reported Population Mitotic Cells (%)?
Result: 21%

Task: Sample `Cl.Oc1ccc2c3c1O[C@H]1c4[nH]c5c(c4C[C@@]4(O)[C@@H](C2)N(CC2CC2)CC[C@]314)C[C@@]1(O)[C@H]2Cc3ccc(O)c4c3[C@@]1(CCN2CC1CC1)[C@H]5O4` — what was its Population Mitotic Cells (%)?
Result: 40%

Task: Query (compound): CCCn1c(=O)c2[nH]c(-c3cnn(Cc4cccc(C(F)(F)F)c4)c3)nc2n(CC)c1=O [GS 6201] ; field requested: Population Mitotic Cells (%)
Result: 30%

====

- System: U2OS
- assayRemarks: Incucyte cell viability with U2OS; further: filed as whole numbers so only -1 and 0 and 1 occur
- Format: toxicity, cell-based
- settings: human, 6 h, 10 µM, compound concentration 10 uM, replicate number 1, timepoint 6 hours
attributeMeasured: Growth Rate
Answer field: number only, no words.

Some solved cases for reference:
1. COc1cc(N2CCC(N3CCN(C)CC3)CC2)ccc1Nc1ncc(Cl)c(Nc2ccccc2P(C)(C)=O)n1 [BRIGATINIB]    0
2. O=C(NOCC1CC1)c1ccc(F)c(F)c1Nc1ccc(I)cc1Cl [CI-1040]    0
3. CN([C@@H](Cc1ccc(OS(=O)(=O)c2cccc3cnccc23)cc1)C(=O)N1CCN(c2ccccc2)CC1)S(=O)(=O)c1cccc2cnccc12    1
4. Cn1nc(C(F)(F)F)cc1-c1cnc(N2CCc3cc(S(=O)(=O)Nc4c(F)cc(Cl)cc4F)cc(N4CCCC4=O)c32)nc1 [TP-020]    0
5. CNc1cc(Oc2cc(C(=O)Nc3cc(N4CCN(C)CC4)cc(C(F)(F)F)c3)ccc2C)ncn1    0

Task: Could you share which Growth Rate value was measured for `CCc1cccc(CC)c1NC(=O)c1nn(C)c2c1CCc1cnc(Nc3ccc(N4CCN(C)CC4)cc3OC)nc1-2` ?
Result: 1

Task: Item CO[C@H]1CC[C@H](CNc2ccc(S(=O)(=O)NC(=O)c3ccc(N4CCN(CC5=C(c6ccc(Cl)cc6)CC(C)(C)CC5)CC4)cc3Oc3cnc4[nH]ccc4c3)cc2[N+](=O)[O-])CC1 [A-1211212] has what recorded Growth Rate?
Result: 1
